Reference source for all entries: the RNAGym collection of RNA variant scans (doi:10.7554/elife.80360)

B1: HDV Ribozyme (parent)
chain: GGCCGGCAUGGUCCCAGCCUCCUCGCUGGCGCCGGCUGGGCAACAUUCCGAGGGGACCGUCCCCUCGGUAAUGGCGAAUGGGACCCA

- Variants of: B1
- experimentNotes: self-cleavage, relative activity (ratio to wild type); higher = more cleavage; co-transcriptional
Please mark criterion met if the recorded self-cleavage is equal to or greater than 0.6, and criterion not met if it falls below.

alteration	assignedCategory
C7A G53A	criterion met
U20G A51G	criterion not met
G39A G81A	criterion not met

Would you say G11C G67C shows self-cleavage at minimum 0.6?
criterion not met

Likewise for C48G C66A ?
criterion met

Likewise for A51G G52U ?
criterion met

Likewise for C4G G31C ?
criterion not met

Likewise for G54A C64G ?
criterion met
